B1: CLCN6 (parent)
chain: VGEIVGIITRHNLTYEFLQARLRQ

variants of: B1; assay: protein stability index of a GFP-peptide fusion (GPS, HEK-293T) (PSI 1-6); higher = more stable; conditions: c terminus: a fixed tail appended;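 further: lentivirally expressed fusions sorted by FACS into six bins by GFP to DsRed ratio, PSI derived from sequencing read proportions per bin multiplied by bin number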
Measure: protein stability index
Please give only the number in your answer, with no unit.

// worked examples, protein stability index included
[
  {
    "Sequence Text": "VGEIVGIITRHNLTYEFLQSRLRQ [A20S]",
    "Measure": "protein stability index",
    "Test Value": 2.02
  },
  {
    "Sequence Text": "VGEIVGPITRHNLTYEFLQARLRQ [I7P]",
    "Measure": "protein stability index",
    "Test Value": 2.56
  },
  {
    "Sequence Text": "VGEIVGIITRHNLTYEFLQARLRC [Q24C]",
    "Measure": "protein stability index",
    "Test Value": 3.27
  },
  {
    "Sequence Text": "VGEIVGIITRHNLTYEFLQARWRQ [L22W]",
    "Measure": "protein stability index",
    "Test Value": 2.32
  },
  {
    "Sequence Text": "VGEIVGIITRHNLTYEFLQARLRS [Q24S]",
    "Measure": "protein stability index",
    "Test Value": 2.53
  }
]

Query block: Param item = VGEHVGIITRHNLTYEFLQARLRQ [I4H] ; retrieve measured protein stability index.
Result block: 2.02

Query block: Param item = VGEIVGIITRHNVTYEFLQARLRQ [L13V] ; retrieve measured protein stability index.
Result block: 2.04

Query block: Param item = VGEIVGIIRRHNLTYEFLQARLRQ [T9R] ; retrieve measured protein stability index.
Result block: 1.4

Query block: Param item = VGEIVGIITRHNLTYEFLQAQLRQ [R21Q] ; retrieve measured protein stability index.
Result block: 2.57

Query block: Param item = VGEIVGIITRHNLTYEFLQAKLRQ [R21K] ; retrieve measured protein stability index.
Result block: 1.06

Query block: Param item = VGEAVGIITRHNLTYEFLQARLRQ [I4A] ; retrieve measured protein stability index.
Result block: 2.1
